Where do the numbers come from? From ChEMBL document CHEMBL2218924.

biological target: Tyrosine-protein kinase receptor TYRO3 (Homo sapiens); details: at 10 µM
residual activity below 80% gives NOT MET; residual activity at or above it gives MET.

>>> cat("CCN(CC)CCCCN1c2ccccc2Oc2ccc(Cl)cc21")
"MET"
>>> cat("CNc1cc2c(Nc3cccc(Br)c3)ncnc2cn1")
"MET"
>>> cat("O=Nc1c(-c2c(O)[nH]c3ccccc23)[nH]c2ccccc12")
"NOT MET"
>>> cat("CC(=O)c1ccc(N2CCOCC2)cc1O")
"MET"
>>> cat("Ic1cccc(CSc2nnc(-c3ccncc3)o2)c1")
"MET"
>>> cat("Oc1ccc(Nc2nc(-c3ccc(Cl)cc3)cs2)cc1")
"MET"
>>> cat("Nc1nc(Nc2ccc(S(N)(=O)=O)cc2)nn1C(=S)Nc1c(F)cccc1F")
"NOT MET"
>>> cat("CC(C)n1cnc2c(NCc3ccccc3)nc(NCCCO)nc21")
"MET"
>>> cat("C[C@@H](N)[C@H]1CC[C@H](C(=O)Nc2ccncc2)CC1")
"MET"
>>> cat("Cn1nc2c3c(cccc31)C(=O)c1ccccc1-2")
"MET"
>>> cat("O=C1c2ccccc2-[n+]2ccc3c([nH]c4ccccc43)c21")
"MET"
>>> cat("CO[C@@H]1[C@H](N(C)C(=O)c2ccccc2)C[C@H]2O[C@]1(C)n1c3ccccc3c3c4c(c5c6ccccc6n2c5c31)C(=O)NC4")
"MET"
>>> cat("O=c1c2ccccc2[nH]c(=S)n1CCN1CCC(=C(c2ccc(F)cc2)c2ccc(F)cc2)CC1")
"MET"
>>> cat("N#CCCc1ccc2c(c1)-c1[nH]c3ccc([N+](=O)[O-])cc3c1CC(=O)N2")
"NOT MET"
>>> cat("Cc1cc(Nc2nc(-c3ccccc3)nc3ccccc23)n[nH]1")
"NOT MET"
>>> cat("CN(C)CCCn1cc(C2=C(c3c[nH]c4ccccc34)C(=O)NC2=O)c2ccccc21")
"NOT MET"
>>> cat("O=C(Nc1cccc(Nc2cc(Nc3cccc(C(F)(F)F)c3)ncn2)c1)C1CC1")
"NOT MET"
>>> cat("c1ccc(-c2n[nH]c3c2oc2ccccc23)cc1")
"NOT MET"
>>> cat("O=c1cc(-c2cccc3c2Sc2ccccc2S3)oc(N2CCOCC2)c1")
"MET"
>>> cat("CC(=O)O/N=C1\\C(=C2\\C(=O)Nc3cc(Br)ccc32)Nc2ccccc21")
"MET"
>>> cat("O=C(Nc1cccc(Nc2nccc(Nc3cccc(C(F)(F)F)c3)n2)c1)C1CC1")
"MET"
>>> cat("COc1cc2ncnc(Nc3ccc(O)c(Br)c3)c2cc1OC")
"NOT MET"
>>> cat("Nc1n[nH]c2nnc(-c3c(-c4ccccc4)nn4ccccc34)cc12")
"MET"
>>> cat("c1ccc(-c2n[nH]cc2-c2ccnc3ccccc23)nc1")
"NOT MET"
>>> cat("COc1cc2ncnc(Nc3ccc(Oc4ccccc4)cc3)c2cc1OC")
"NOT MET"
>>> cat("NC(=O)c1ccc2[nH]c(-c3ccc(Oc4ccc(Cl)cc4)cc3)nc2c1")
"MET"
>>> cat("O=C1NC(=O)c2c1c1c3ccccc3[nH]c1c1[nH]c3cc(Br)ccc3c21")
"MET"
>>> cat("O=C1NC(=O)c2cc(Nc3ccc(F)cc3)c(Nc3ccc(F)cc3)cc21")
"MET"
>>> cat("Cn1cnc2cc3c(Nc4cccc(Br)c4)ncnc3cc21")
"NOT MET"
>>> cat("c1ccc2c(-c3ccncc3)c[nH]c2c1")
"MET"
>>> cat("O=C1NC(=O)/C(=C/c2ccc3c(c2)OC(F)(F)O3)S1")
"MET"
>>> cat("Cn1cc(/C=C2\\C(=O)Nc3ccc(S(N)(=O)=O)cc32)c2ccccc21")
"NOT MET"
>>> cat("CCOc1cc2ncnc(Nc3cccc(Br)c3)c2cc1OCC")
"NOT MET"
>>> cat("N#C/C(=C(\\N)Sc1ccc(N)cc1)c1ccccc1C(F)(F)F")
"MET"
>>> cat("COc1cc2ncnc(N3CCN(C(=O)Nc4ccc(Oc5ccccc5)cc4)CC3)c2cc1OC")
"MET"
>>> cat("O=C1Nc2ccccc2/C1=C1/Nc2ccccc2/C1=N\\OCCC(O)CO (stereo unspecified)")
"NOT MET"
>>> cat("COc1cccc(-c2cc(=O)c3ccccc3o2)c1N")
"MET"
>>> cat("Cc1cncc2cccc(S(=O)(=O)N3CCCN(C(=O)CN)C[C@H]3C)c12")
"MET"
>>> cat("Cc1ccc(NC2=CC(=O)c3sc(C)nc3C2=O)cc1")
"MET"

====

target: Vascular endothelial growth factor receptor 3 (Homo sapiens) (UniProt P35916); conditions: at 10 µM
Sequence (P35916 whole entry): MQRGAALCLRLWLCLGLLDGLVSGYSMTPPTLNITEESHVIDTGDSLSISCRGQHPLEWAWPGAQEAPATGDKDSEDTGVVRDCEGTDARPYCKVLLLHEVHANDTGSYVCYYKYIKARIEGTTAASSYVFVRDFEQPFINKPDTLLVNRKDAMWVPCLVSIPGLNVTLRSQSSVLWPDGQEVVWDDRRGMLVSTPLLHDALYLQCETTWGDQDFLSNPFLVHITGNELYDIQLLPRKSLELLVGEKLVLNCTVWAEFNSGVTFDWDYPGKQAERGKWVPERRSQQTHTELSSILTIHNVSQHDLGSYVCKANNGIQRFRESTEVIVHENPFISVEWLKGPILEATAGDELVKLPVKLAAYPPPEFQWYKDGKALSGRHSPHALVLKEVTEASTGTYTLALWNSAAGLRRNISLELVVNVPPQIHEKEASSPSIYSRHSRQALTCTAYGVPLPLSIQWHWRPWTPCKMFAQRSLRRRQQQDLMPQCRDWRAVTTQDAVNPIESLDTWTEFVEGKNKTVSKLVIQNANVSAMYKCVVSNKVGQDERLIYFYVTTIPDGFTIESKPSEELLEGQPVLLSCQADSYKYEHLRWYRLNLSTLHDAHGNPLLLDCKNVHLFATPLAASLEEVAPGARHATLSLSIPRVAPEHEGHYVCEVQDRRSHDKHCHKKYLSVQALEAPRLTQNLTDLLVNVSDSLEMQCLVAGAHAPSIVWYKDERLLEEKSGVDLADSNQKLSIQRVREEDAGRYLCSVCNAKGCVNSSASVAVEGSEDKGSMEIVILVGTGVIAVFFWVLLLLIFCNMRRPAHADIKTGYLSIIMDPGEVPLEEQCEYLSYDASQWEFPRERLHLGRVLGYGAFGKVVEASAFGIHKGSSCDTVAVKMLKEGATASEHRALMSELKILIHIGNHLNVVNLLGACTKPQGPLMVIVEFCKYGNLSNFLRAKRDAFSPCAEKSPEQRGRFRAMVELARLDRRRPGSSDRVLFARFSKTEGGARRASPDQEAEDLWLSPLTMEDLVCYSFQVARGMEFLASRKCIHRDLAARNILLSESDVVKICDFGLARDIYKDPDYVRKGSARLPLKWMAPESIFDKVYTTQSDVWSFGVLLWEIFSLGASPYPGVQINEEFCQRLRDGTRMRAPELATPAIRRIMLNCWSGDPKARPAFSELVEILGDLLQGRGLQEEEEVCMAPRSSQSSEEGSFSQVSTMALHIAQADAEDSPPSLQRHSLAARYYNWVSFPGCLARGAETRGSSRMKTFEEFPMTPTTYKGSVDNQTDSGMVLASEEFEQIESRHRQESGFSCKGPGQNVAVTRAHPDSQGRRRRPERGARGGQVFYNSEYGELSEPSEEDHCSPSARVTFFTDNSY
Field: label. Allowed values: yes (residual activity < 20%) or no (residual activity >= 20%).

>>> cat("CO[C@H]1C[C@@H]2CC[C@@H](C)[C@@](O)(O2)C(=O)C(=O)N2CCCC[C@H]2C(=O)O[C@H]([C@H](C)C[C@@H]2CC[C@@H](O)[C@H](OC)C2)CC(=O)[C@H](C)/C=C(\\C)[C@@H](O)[C@@H](OC)C(=O)[C@H](C)C[C@H](C)/C=C/C=C/C=C/1C")
"no"
>>> cat("NC(=O)c1ccc2[nH]c(-c3ccc(Oc4ccc(Cl)cc4)cc3)nc2c1")
"no"
>>> cat("COc1cccc(-c2cc(=O)c3ccccc3o2)c1N")
"no"
>>> cat("CC(C)n1cnc2c(NCc3ccccc3)nc(NCCCO)nc21")
"no"
>>> cat("O=C1Nc2ccccc2/C1=C1/Nc2ccccc2/C1=N\\OCCC(O)CO (stereo unspecified)")
"yes"
>>> cat("O=Nc1c(-c2c(O)[nH]c3ccccc23)[nH]c2ccccc12")
"yes"

====

molecular target: Fibroblast growth factor receptor 2 (Homo sapiens); conditions: at 10 µM
Readout label: residual activity (%)

>>> reported("CC[n+]1c(/C=C/N(C)c2ccccc2)n(-c2ccccc2)c2ccc(-c3nc4ccccc4s3)cc21")
123
>>> reported("O=[N+]([O-])c1ccc(-c2nc(-c3ccc(F)cc3)c(-c3ccncc3)[nH]2)cc1")
99
>>> reported("CNc1cc2c(Nc3cccc(Br)c3)ncnc2cn1")
88
>>> reported("CN(C)CCCn1cc(C2=C(c3c[nH]c4ccccc34)C(=O)NC2=O)c2ccccc21")
33
>>> reported("CO[C@@H]1[C@H](N(C)C(=O)c2ccccc2)C[C@H]2O[C@]1(C)n1c3ccccc3c3c4c(c5c6ccccc6n2c5c31)C(=O)NC4")
7
>>> reported("O=Nc1c(-c2c(O)[nH]c3ccccc23)[nH]c2ccccc12")
2
>>> reported("O=c1c2ccccc2[nH]c(=S)n1CCN1CCC(=C(c2ccc(F)cc2)c2ccc(F)cc2)CC1")
62
>>> reported("Oc1ccc(-c2nc(-c3ccc(F)cc3)c(-c3ccncc3)[nH]2)cc1")
87
>>> reported("Nc1ccc2ncnc(NCCc3ccc(Oc4ccccc4)cc3)c2c1")
48
>>> reported("CCN(CC)CCCCN1c2ccccc2Oc2ccc(Cl)cc21")
112

====

Entries annotated with measured residual activity
target: Serine/threonine-protein kinase PLK2 (Homo sapiens) (UniProt Q9NYY3); settings: at 10 µM
Sequence (Q9NYY3 whole entry, looked up): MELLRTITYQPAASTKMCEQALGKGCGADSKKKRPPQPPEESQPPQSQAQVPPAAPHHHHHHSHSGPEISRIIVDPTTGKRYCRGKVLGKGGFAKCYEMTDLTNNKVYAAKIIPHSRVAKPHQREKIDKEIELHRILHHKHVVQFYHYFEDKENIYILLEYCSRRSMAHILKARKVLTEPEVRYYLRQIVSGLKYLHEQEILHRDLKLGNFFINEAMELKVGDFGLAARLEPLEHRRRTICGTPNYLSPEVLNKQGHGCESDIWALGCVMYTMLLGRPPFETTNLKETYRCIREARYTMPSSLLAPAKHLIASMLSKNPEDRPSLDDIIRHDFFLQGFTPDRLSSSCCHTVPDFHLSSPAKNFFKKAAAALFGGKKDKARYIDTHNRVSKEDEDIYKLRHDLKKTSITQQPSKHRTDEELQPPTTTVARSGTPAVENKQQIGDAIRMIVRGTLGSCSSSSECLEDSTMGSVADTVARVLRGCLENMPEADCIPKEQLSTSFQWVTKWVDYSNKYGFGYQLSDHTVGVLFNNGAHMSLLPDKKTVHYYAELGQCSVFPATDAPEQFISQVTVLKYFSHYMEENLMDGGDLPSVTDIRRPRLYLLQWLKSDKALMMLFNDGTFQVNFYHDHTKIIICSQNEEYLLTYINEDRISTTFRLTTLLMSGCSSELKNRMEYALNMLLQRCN
Description: Millipore: Percentage of residual kinase activity of PLK2 at 10uM relative to control. Control inhibitor: Phosphoric acid* at 0.3uM. Buffer: 8 mM MOPS pH 7.0, 0.2 mM EDTA
Readout label: residual activity (%)

>>> reported("c1ccc2c(-c3ccncc3)c[nH]c2c1")
94
>>> reported("N#Cc1cnc2cnc(NCc3cccnc3)cc2c1Nc1ccc(F)c(Cl)c1")
101
>>> reported("Cn1cnc2cc3c(Nc4cccc(Br)c4)ncnc3cc21")
98
>>> reported("Cc1cc2ncc(-c3ccccc3)nc2cc1C")
106

====

biological target: NUAK family SNF1-like kinase 1 (Homo sapiens) (UniProt O60285); settings: at 10 µM
Sequence (O60285 whole entry): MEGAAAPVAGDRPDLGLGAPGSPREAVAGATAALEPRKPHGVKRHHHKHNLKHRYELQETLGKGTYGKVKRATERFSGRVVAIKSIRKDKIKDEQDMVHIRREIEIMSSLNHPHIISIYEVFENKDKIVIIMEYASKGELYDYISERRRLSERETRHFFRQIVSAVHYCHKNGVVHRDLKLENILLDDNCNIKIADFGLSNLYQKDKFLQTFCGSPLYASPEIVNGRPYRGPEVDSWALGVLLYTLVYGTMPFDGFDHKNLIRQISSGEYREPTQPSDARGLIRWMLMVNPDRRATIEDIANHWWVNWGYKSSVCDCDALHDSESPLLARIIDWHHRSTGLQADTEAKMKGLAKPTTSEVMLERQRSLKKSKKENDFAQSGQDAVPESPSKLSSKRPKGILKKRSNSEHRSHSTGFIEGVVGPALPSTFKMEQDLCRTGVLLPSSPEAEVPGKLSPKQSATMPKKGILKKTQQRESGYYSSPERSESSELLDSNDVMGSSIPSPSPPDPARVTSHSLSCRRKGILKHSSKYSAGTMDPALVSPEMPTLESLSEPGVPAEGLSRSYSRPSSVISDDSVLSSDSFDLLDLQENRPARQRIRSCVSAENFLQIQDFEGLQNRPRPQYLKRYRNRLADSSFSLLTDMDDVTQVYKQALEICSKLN
Readout label: residual activity (%)

>>> reported("COc1ccc(OC)c2c(=S)c3ccccc3[nH]c12")
84
>>> reported("Oc1ccc(Nc2nc(-c3ccc(Cl)cc3)cs2)cc1")
84
>>> reported("Cc1ccc(S(=O)(=O)/C=C/C#N)cc1")
94
>>> reported("Nc1ccc2ncnc(NCCc3ccc(Oc4ccccc4)cc3)c2c1")
23
>>> reported("COc1ccc(C(=O)Nc2sc3c(c2C(N)=O)CCCC3)cc1OC")
75
>>> reported("CCN(CC)C(=O)c1ccc(Nc2nc(OCC3CCCCC3)c3nc[nH]c3n2)cc1")
4
>>> reported("Cc1nc(-c2ccccc2)c(-c2ccncc2)o1")
88
>>> reported("CCN(CC)CCCCN1c2ccccc2Oc2ccc(Cl)cc21")
87
>>> reported("CCC(=O)Nc1ccc2ncnc(Nc3cccc(Br)c3)c2c1")
92
>>> reported("COc1ccc(S(=O)(=O)N(CCO)c2ccccc2CN(C)C/C=C/c2ccc(Cl)cc2)cc1")
75
>>> reported("Cc1cc(Nc2nc(-c3ccccc3)nc3ccccc23)n[nH]1")
-1

====

Target: 3-phosphoinositide-dependent protein kinase 1 (Homo sapiens) (UniProt O15530)
Sequence (whole entry): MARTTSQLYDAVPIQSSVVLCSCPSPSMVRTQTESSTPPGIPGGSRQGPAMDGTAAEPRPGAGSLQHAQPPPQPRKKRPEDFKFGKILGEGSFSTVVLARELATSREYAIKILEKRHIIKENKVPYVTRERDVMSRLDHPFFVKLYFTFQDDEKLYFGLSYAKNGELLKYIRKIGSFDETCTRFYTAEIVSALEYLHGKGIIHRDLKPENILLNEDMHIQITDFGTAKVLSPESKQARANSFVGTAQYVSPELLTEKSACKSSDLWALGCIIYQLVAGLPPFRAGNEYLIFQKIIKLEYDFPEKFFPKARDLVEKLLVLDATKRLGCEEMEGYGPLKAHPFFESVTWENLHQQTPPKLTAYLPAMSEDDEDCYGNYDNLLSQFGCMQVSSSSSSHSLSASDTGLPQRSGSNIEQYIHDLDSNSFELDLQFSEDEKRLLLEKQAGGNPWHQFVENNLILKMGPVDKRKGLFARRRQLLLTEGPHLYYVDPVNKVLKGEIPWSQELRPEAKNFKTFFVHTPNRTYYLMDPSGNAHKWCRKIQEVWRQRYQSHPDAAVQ
Conditions: at 1 µM
Entries annotated with measured residual activity
Readout label: residual activity (%)

>>> reported("O=C1c2ccccc2-[n+]2ccc3c([nH]c4ccccc43)c21")
100
>>> reported("COc1cc2ncnc(N3CCN(C(=O)Nc4ccc(Oc5ccccc5)cc4)CC3)c2cc1OC")
106
>>> reported("CN(C)CCCn1cc(C2=C(c3c[nH]c4ccccc34)C(=O)NC2=O)c2ccccc21")
63
